Entries and their measured %Accuracy follow.
Conditions: plasma; Short term stability 8 h at room temperature; 500.00 ng/mL (MQC)
measurement label: %Accuracy (%)

1. C=C1CC[C@@H]2[C@](C)(CO)[C@H](O)CC[C@@]2(C)[C@@H]1CCC1=CCOC1=O [AP6, 14-deoxyandrographolide] ... 90.47
2. C=C1CC[C@@H]2[C@](C)(CO)[C@H](O)CC[C@@]2(C)[C@@H]1/C=C/C1=CCOC1=O [AP3, 14-deoxy-11, 12-didehydroandrographolide] ... 94.40
3. C=C1CC[C@@H]2[C@](C)(CO)[C@H](O)CC[C@@]2(C)[C@@H]1C/C=C1/C(=O)OC[C@H]1O [AP1, andrographolide] ... 89.06
4. C=C1CC[C@@H]2[C@](C)(CO[C@@H]3O[C@H](CO)[C@@H](O)[C@H](O)[C@H]3O)CCC[C@@]2(C)[C@@H]1CCC1=CCOC1=O [AP4, neoandrographolide] ... 94.85

###

Form field: %Accuracy (one value per entry).
Assay: Stability in urine under different storage conditions
Format: physicochemical, human
Conditions: Freeze–thaw stability 5 cycles, 900.00 ng/mL (HQC)
measurement label: %Accuracy (%)

1) C=C1CC[C@@H]2[C@](C)(CO[C@@H]3O[C@H](CO)[C@@H](O)[C@H](O)[C@H]3O)CCC[C@@]2(C)[C@@H]1CCC1=CCOC1=O [AP4, neoandrographolide] ... 101.12
2) C=C1CC[C@@H]2[C@](C)(CO)[C@H](O)CC[C@@]2(C)[C@@H]1CCC1=CCOC1=O [AP6, 14-deoxyandrographolide] ... 102.77
3) C=C1CC[C@@H]2[C@](C)(CO)[C@H](O)CC[C@@]2(C)[C@@H]1/C=C/C1=CCOC1=O [AP3, 14-deoxy-11, 12-didehydroandrographolide] ... 100.19
4) C=C1CC[C@@H]2[C@](C)(CO)[C@H](O)CC[C@@]2(C)[C@@H]1C/C=C1/C(=O)OC[C@H]1O [AP1, andrographolide] ... 98.78

###

Measured concentration by entry:
Assay: Stability in urine under different storage conditions
Type: physicochemical, human
Conditions: Post preparative stability 24 h at autosampler, 500.00 ng/mL (MQC)
measurement label: Measured concentration (ng/mL)

1) C=C1CC[C@@H]2[C@](C)(CO)[C@H](O)CC[C@@]2(C)[C@@H]1CCC1=CCOC1=O [AP6, 14-deoxyandrographolide] ... 469.68
2) C=C1CC[C@@H]2[C@](C)(CO)[C@H](O)CC[C@@]2(C)[C@@H]1/C=C/C1=CCOC1=O [AP3, 14-deoxy-11, 12-didehydroandrographolide] ... 451.66
3) C=C1CC[C@@H]2[C@](C)(CO)[C@H](O)CC[C@@]2(C)[C@@H]1C/C=C1/C(=O)OC[C@H]1O [AP1, andrographolide] ... 474.97
4) C=C1CC[C@@H]2[C@](C)(CO[C@@H]3O[C@H](CO)[C@@H](O)[C@H](O)[C@H]3O)CCC[C@@]2(C)[C@@H]1CCC1=CCOC1=O [AP4, neoandrographolide] ... 449.68

###

Assay: Stability in urine under different storage conditions
Format: physicochemical, human
Conditions: Post preparative stability 24 h at autosampler, 900.00 ng/mL (HQC)
measurement label: %Accuracy (%)

1) C=C1CC[C@@H]2[C@](C)(CO[C@@H]3O[C@H](CO)[C@@H](O)[C@H](O)[C@H]3O)CCC[C@@]2(C)[C@@H]1CCC1=CCOC1=O [AP4, neoandrographolide] ... 101.81
2) C=C1CC[C@@H]2[C@](C)(CO)[C@H](O)CC[C@@]2(C)[C@@H]1CCC1=CCOC1=O [AP6, 14-deoxyandrographolide] ... 101.31
3) C=C1CC[C@@H]2[C@](C)(CO)[C@H](O)CC[C@@]2(C)[C@@H]1/C=C/C1=CCOC1=O [AP3, 14-deoxy-11, 12-didehydroandrographolide] ... 100.28
4) C=C1CC[C@@H]2[C@](C)(CO)[C@H](O)CC[C@@]2(C)[C@@H]1C/C=C1/C(=O)OC[C@H]1O [AP1, andrographolide] ... 99.66
